System: K562 CRISPRi cells
Assay: Constant region variant library pooled growth screen, K562
Type: cell-based, human
Conditions: sgRNA constant region variant; activity relative to unmodified constant region cr995; mean CRISPRi activity
Listed molecules paired with reported Mean relative activity
Measured attribute: Mean relative activity

- cr081 (nucleic acid, listed as DNA, chemistry not fully specified) guide: ATTAAAGAGCTAAGCTGGAAACAGCATAGCAAGTTTAAATAAGGCTAGTCCGTTATCAACTTGAAAAAGTGGCACCGAGTCGGTGCT: 0.009207
- cr499 (nucleic acid, listed as DNA, chemistry not fully specified) guide: GTTTAAGAGCTAAGCTGGAAACAGCATAGCAACTTTAAATAAGGCTAGTCCGATATCAACTTGAAAAAGTGGCACCGAGGCGGTGCT: 0.007257
- cr706 (nucleic acid, listed as DNA, chemistry not fully specified) guide: GTTTAAGAGCTAAGCTGGAAACAGCATAGCAAGGTTAAATAAGGCTAGTCCGTTATCAACTTGAAAAAGTGGCACGGAGTCCGTGCT: 0.006595
- cr509 (nucleic acid, listed as DNA, chemistry not fully specified) guide: GTTTAAGAGCTAAGCTGGAAACAGCATAGCAAGTTTAAATAACGCTAGTCGGTTATCAACTTGAAAAAGTGGCAACGAGTCGTTGCT: 0.01061

Reference source: patent US20220259593A1
